# assayNotes: in vivo;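 also: plasma drug concentrations quantified by liquid chromatography with tandem mass spectrometry following solid phase extraction, reported as mean ± SEM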
# conditionParameters: male, F344, rat, plasma, oral, 10 ppm in diet
Counter-ions that a name gives are not always drawn.
readoutLabel: concentration at 5 weeks on diet (ng/mL)
The response must be a number in ng/mL with no trailing unit.

Request: Give recorded concentration at 5 weeks on diet. CC(=N)NCCCC[C@H](N)C(=O)Nc1nnn[nH]1 [compound XI, hydrate, dihydrochloride]
Result: 341

###

# assayNotes: in vivo
# conditionParameters: male, F344, rat, plasma, oral, 20 ppm in diet
Counter-ions that a name gives are not always drawn.
readoutLabel: concentration at 5 weeks on diet (ng/mL)
Give the quantity in ng/mL, number only.

Request: Name the recorded concentration at 5 weeks on diet of the compound listed here: CC(=N)NCCCC[C@H](N)C(=O)Nc1nnn[nH]1 [compound XI, hydrate, dihydrochloride]
Result: 821

Data credit: patent US7012098B2
